- Tested on: LAMA-84 (Chronic Myelogenous Leukemia)
- experiment description: combination Emax (second highest fraction inhibited in the dose matrix, 72 h); higher = more inhibition; extreme values may be limits of the assay
Binary classification by combination Emax, with 0.6 as an inclusive lower bound for class 1; all other cases are class 0.

Before answering, review these 3 worked examples.
| compound | study target | group label |
| --- | --- | --- |
| CC(=O)c1c(C)c2cnc(Nc3ccc(N4CCNCC4)cn3)nc2n(C2CCCC2)c1=O [Palbociclib] + CC1(C)CCC(CN2CCN(c3ccc(C(=O)NS(=O)(=O)c4ccc(NCC5CCOCC5)c([N+](=O)[O-])c4)c(Oc4cnc5[nH]ccc5c4)c3)CC2)=C(c2ccc(Cl)cc2)C1 [Venetoclax] (first compound max 10 µM, 7x7, partner max 1 µM) | LAMA-84 (Chronic Myelogenous Leukemia) | class 0 |
| COc1cc2ncnc(Nc3ccc(F)c(Cl)c3)c2cc1OCCCN1CCOCC1 [Gefitinib] + CC(C)n1c(=O)n(C)c2cnc3cc(F)c(-c4ccc(OCCCN5CCCCC5)nc4)cc3c21 [AZD1390] (first compound max 10 µM, 7x7, partner max 0.3 µM) | LAMA-84 (Chronic Myelogenous Leukemia) | class 0 |
| COc1cccc(OCCCN)c1-c1cc(Nc2cnc(C#N)cn2)n[nH]1 [Prexasertib] + C[C@@H]1COCCN1C2=NC(=NC(=C2)C3(CC3)[S@](=N)(=O)C)C4=C5C=CNC5=NC=C4 [AZD6738] (first compound max 1 µM, 7x7, partner max 10 µM) | LAMA-84 (Chronic Myelogenous Leukemia) | class 1 |

Query :: Decide: is the reported value of combination Emax for Cn1cnc2c(F)c(Nc3ccc(Br)cc3Cl)c(C(=O)NOCCO)cc21 [Selumetinib] + C=CCn1c(=O)c2cnc(Nc3ccc(N4CCN(C)CC4)cc3)nc2n1-c1cccc(C(C)(C)O)n1 [AZD1775] (first compound max 10 µM, partner max 1 µM) equal to or greater than 0.6?
Result :: class 1

Query :: Next compound up: Cc1cc2ncnn2cc1Nc1ncc2c(n1)n(C1CCOCC1)c(=O)n2C [AZD7648] + CN(C)CCCOc1ccc(-c2ccc3ncc4c(c3c2)n(C2CCOCC2)c(=O)n4C)cn1 [AZD0156] (first compound max 10 µM, 7x7, partner max 1 µM)
Result :: class 0

Query :: Next compound up: Cc1c2c(nn1C)CSCc1cc(n(C)n1)CSc1cc(c3ccccc3c1)OCCCc1c(C(=O)O)n(C)c3c-2c(Cl)ccc13 [AZD5991] + C1CN(CCC1(C(=O)N[C@@H](CCO)C2=CC=C(C=C2)Cl)N)C3=NC=NC4=C3C=CN4 [Capivasertib] (first compound max 1 µM, 7x7, partner max 3 µM)
Result :: class 0

Query :: Next compound up: N#Cc1cnc(Nc2cc(NC[C@H]3CNCCO3)c(C(F)(F)F)cn2)cn1 [SRA737] + C=CCn1c(=O)c2cnc(Nc3ccc(N4CCN(C)CC4)cc3)nc2n1-c1cccc(C(C)(C)O)n1 [AZD1775] (first compound max 10 µM, partner max 1 µM)
Result :: class 1

Query :: Next compound up: CCN(CCO)CCCOc1ccc2c(Nc3cc(CC(=O)Nc4cccc(F)c4)[nH]n3)ncnc2c1 [AZD2811] + O=C(c1cc(Cc2n[nH]c(=O)c3ccccc23)ccc1F)N1CCN(C(=O)C2CC2)CC1 [Olaparib] (first compound max 1 µM, 7x7, partner max 10 µM)
Result :: class 0

Query :: Next compound up: Cc1c2c(nn1C)CSCc1cc(n(C)n1)CSc1cc(c3ccccc3c1)OCCCc1c(C(=O)O)n(C)c3c-2c(Cl)ccc13 [AZD5991] + Nc1ccn([C@@H]2O[C@H](CO)[C@@H](O)C2(F)F)c(=O)n1 [Gemcitabine] (first compound max 1 µM, 7x7, partner max 0.3 µM)
Result :: class 1

Query :: Next compound up: C[C@@H](c1ccc2nccn2c1)n1nnc2ncc(-c3cnn(C)c3)nc21 [Savolitinib] + Cc1c2c(nn1C)CSCc1cc(n(C)n1)CSc1cc(c3ccccc3c1)OCCCc1c(C(=O)O)n(C)c3c-2c(Cl)ccc13 [AZD5991] (first compound max 1 µM, 7x7, partner max 1 µM)
Result :: class 0

Query :: Next compound up: CCN(CCO)CCCOc1ccc2c(Nc3cc(CC(=O)Nc4cccc(F)c4)[nH]n3)ncnc2c1 [AZD2811] + C[C@@H]1COCCN1C2=NC(=NC(=C2)C3(CC3)[S@](=N)(=O)C)C4=C5C=CNC5=NC=C4 [AZD6738] (first compound max 1 µM, 7x7, partner max 10 µM)
Result :: class 1

Query :: Next compound up: CS(=O)(=O)CCNCc1ccc(-c2ccc3ncnc(Nc4ccc(OCc5cccc(F)c5)c(Cl)c4)c3c2)o1 [Lapatinib] + NC1(c2ccc(-c3nc4ccn5c(=O)[nH]nc5c4cc3-c3ccccc3)cc2)CCC1 [MK-2206] (first compound max 10 µM, 7x7, partner max 10 µM)
Result :: class 1

Query :: Next compound up: C[C@@H]1COCCN1c1cc(C2([S@](C)(=N)=O)CC2)nc(-c2ccnc3[nH]ccc23)n1 [AZD6738] + C1CC(C1)(C(=O)[O-])C(=O)[O-].N.N.[Pt+2] [Carboplatin] (first compound max 10 µM, 7x7, partner max 10 µM)
Result :: class 1

Query :: Next compound up: COc1cc2c(cc1OCCCCCOc1cc3c(cc1OC)C(=O)N1C=C(C)C[C@H]1C=N3)N=C[C@@H]1CC(C)=CN1C2=O [SG3199] + O=C(c1cc(Cc2n[nH]c(=O)c3ccccc23)ccc1F)N1CCN(C(=O)C2CC2)CC1 [Olaparib] (first compound max 0.001 µM, 7x7, partner max 10 µM)
Result :: class 0
